- measurement_target: T1, monkey GPC3-His protein (monkey)
- T1 construct: Bought recombinant protein; also called monkey GPC3 protein
- test_method_notes: ELISA, monkey GPC3-His coated;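 further: Plate-coated antigen at 1 µg/mL, antibody binding 2 h at 37 °C, detected with HRP-labeled secondary antibody and TMB, absorbance at 450 nm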
Give measured OD450 at 0.0001 nM for each item. Keep answers brief.
Answers are plain numbers, in OD450.

I need OD450 at 0.0001 nM for every entry listed below, if you could help.
1. F4.13.7 (antibody, human IgG1, kappa, V domains shown, Human-murine chimeric antibody) VH: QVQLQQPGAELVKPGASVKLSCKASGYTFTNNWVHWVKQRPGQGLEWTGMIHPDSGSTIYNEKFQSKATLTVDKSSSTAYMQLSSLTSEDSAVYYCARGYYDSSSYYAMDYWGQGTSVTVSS VL: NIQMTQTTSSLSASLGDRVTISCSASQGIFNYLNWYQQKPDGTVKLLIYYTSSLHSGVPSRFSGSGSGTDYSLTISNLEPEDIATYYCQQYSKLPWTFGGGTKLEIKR
2. F1.2.14 (antibody, human IgG1, kappa, V domains shown, Human-murine chimeric antibody) VH: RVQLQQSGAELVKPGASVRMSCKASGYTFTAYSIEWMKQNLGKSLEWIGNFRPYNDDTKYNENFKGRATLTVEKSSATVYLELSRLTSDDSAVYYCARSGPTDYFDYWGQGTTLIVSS VL: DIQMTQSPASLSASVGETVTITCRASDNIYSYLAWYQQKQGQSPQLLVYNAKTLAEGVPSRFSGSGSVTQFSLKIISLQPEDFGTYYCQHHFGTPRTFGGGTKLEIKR
3. F2.169.2 (antibody, human IgG1, kappa, V domains shown, Human-murine chimeric antibody) VH: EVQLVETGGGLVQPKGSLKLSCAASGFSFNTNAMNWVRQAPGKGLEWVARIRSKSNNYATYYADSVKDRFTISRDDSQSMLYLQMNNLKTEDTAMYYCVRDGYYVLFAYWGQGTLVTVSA VL: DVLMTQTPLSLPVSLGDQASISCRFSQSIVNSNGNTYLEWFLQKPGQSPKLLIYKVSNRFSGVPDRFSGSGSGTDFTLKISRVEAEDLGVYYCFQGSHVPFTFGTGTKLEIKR
4. F1.153.1 (antibody, human IgG1, kappa, V domains shown, Human-murine chimeric antibody) VH: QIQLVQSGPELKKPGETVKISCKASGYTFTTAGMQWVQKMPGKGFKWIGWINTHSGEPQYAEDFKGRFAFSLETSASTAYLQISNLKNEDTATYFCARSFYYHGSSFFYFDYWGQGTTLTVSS VL: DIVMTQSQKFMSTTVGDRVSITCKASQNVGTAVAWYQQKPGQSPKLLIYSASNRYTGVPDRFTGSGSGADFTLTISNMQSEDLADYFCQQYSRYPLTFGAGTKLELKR
5. F1.111.11 (antibody, human IgG1, kappa, V domains shown, Human-murine chimeric antibody) VH: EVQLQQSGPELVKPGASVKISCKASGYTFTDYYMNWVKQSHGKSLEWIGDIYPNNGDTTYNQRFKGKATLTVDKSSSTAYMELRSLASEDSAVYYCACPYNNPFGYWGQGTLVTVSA VL: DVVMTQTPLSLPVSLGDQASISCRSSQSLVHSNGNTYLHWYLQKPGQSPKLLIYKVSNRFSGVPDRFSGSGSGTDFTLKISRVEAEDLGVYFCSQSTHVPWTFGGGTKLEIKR

Result:
[0.05, 0.05, 0.05, 0.27, 0.06]
